Tested on: 253994-281-T-J1-PDC KRAS-mutant spheroids with HUVEC/MSC, viability;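 also: spheroids exposed to agents for seven days before readout; percent of DMSO vehicle control viability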
Experiment: Anticancer human tumor 253994-281-T-J1-PDC patient-derived colorectal carcinoma cell line growth inhibition [KRAS2]
Conditions: second compound 1 µM; first compound 0.0316 µM; active compounds read low
Readings of viability, T/C for the listed compounds

- Compound: "Cn1nccc1Nc1nccc(-c2cc3c(s2)C(C)(C)N(CCN2CCOCC2)C3=O)n1 + C=CC(=O)N1CCN(c2nc(=O)n(-c3c(C)ccnc3C(C)C)c3nc(-c4c(O)cccc4F)c(F)cc23)C(C)C1"
  Target Under Test: "253994-281-T-J1-PDC KRAS-mutant spheroids with HUVEC/MSC, viability"
  Unit Spec: "%"
  viability, T/C: 90.2
- Compound: "O=C(c1cc(Cc2n[nH]c(=O)c3ccccc23)ccc1F)N1CCN(C(=O)C2CC2)CC1 + CC1OCC2(CCN(c3cnc(Sc4ccnc(N)c4Cl)c(N)n3)CC2)C1N"
  Target Under Test: "253994-281-T-J1-PDC KRAS-mutant spheroids with HUVEC/MSC, viability"
  Unit Spec: "%"
  viability, T/C: 93.3
- Compound: "CN(C)C/C=C/C(=O)Nc1cc2c(Nc3ccc(F)c(Cl)c3)ncnc2cc1O[C@H]1CCOC1 + C=CC(=O)N1CCN(c2nc(=O)n(-c3c(C)ccnc3C(C)C)c3nc(-c4c(O)cccc4F)c(F)cc23)C(C)C1"
  Target Under Test: "253994-281-T-J1-PDC KRAS-mutant spheroids with HUVEC/MSC, viability"
  Unit Spec: "%"
  viability, T/C: 64.5
- Compound: "Cn1ncnc1[C@H]1c2n[nH]c(=O)c3cc(F)cc(c23)N[C@@H]1c1ccc(F)cc1 + COc1cc2nc(C)nc(NC(C)c3cc(N)cc(C(F)(F)F)c3)c2cc1OC1CCOC1"
  Target Under Test: "253994-281-T-J1-PDC KRAS-mutant spheroids with HUVEC/MSC, viability"
  Unit Spec: "%"
  viability, T/C: 87.1
- Compound: "CC(C)NCC(C(=O)N1CCN(c2ncnc3c2C(C)CC3O)CC1)c1ccc(Cl)cc1 (stereo unspecified) + C=CC(=O)N1CCN(c2nc(=O)n(-c3c(C)ccnc3C(C)C)c3nc(-c4c(O)cccc4F)c(F)cc23)C(C)C1"
  Target Under Test: "253994-281-T-J1-PDC KRAS-mutant spheroids with HUVEC/MSC, viability"
  Unit Spec: "%"
  viability, T/C: 103
- Compound: "COc1cc2nccc(Oc3ccc(NC(=O)C4(C(=O)Nc5ccc(F)cc5)CC4)cc3)c2cc1OC + C=CC(=O)N1CCN(c2nc(OCC3CCCN3C)nc3c2CCN(c2cccc4cccc(C)c24)C3)CC1CC#N"
  Target Under Test: "253994-281-T-J1-PDC KRAS-mutant spheroids with HUVEC/MSC, viability"
  Unit Spec: "%"
  viability, T/C: 97.1
- Compound: "CC(=O)Nc1cccc(-n2c(=O)n(C3CC3)c(=O)c3c(Nc4ccc(I)cc4F)n(C)c(=O)c(C)c32)c1 + CC1OCC2(CCN(c3cnc(Sc4ccnc(N)c4Cl)c(N)n3)CC2)C1N"
  Target Under Test: "253994-281-T-J1-PDC KRAS-mutant spheroids with HUVEC/MSC, viability"
  Unit Spec: "%"
  viability, T/C: 4.04
- Compound: "CC1(C)CCC(CN2CCN(c3ccc(C(=O)NS(=O)(=O)c4ccc(NCC5CCOCC5)c([N+](=O)[O-])c4)c(Oc4cnc5[nH]ccc5c4)c3)CC2)=C(c2ccc(Cl)cc2)C1 + C=CC(=O)N1CCN(c2nc(=O)n(-c3c(C)ccnc3C(C)C)c3nc(-c4c(O)cccc4F)c(F)cc23)C(C)C1"
  Target Under Test: "253994-281-T-J1-PDC KRAS-mutant spheroids with HUVEC/MSC, viability"
  Unit Spec: "%"
  viability, T/C: 100
- Compound: "CC(C)n1nc(-c2ccc3oc(N)nc3c2)c2c(N)ncnc21 + CC1OCC2(CCN(c3cnc(Sc4ccnc(N)c4Cl)c(N)n3)CC2)C1N"
  Target Under Test: "253994-281-T-J1-PDC KRAS-mutant spheroids with HUVEC/MSC, viability"
  Unit Spec: "%"
  viability, T/C: 57.6
- Compound: "CCNC(=O)CC1N=C(c2ccc(Cl)cc2)c2cc(OC)ccc2-n2c(C)nnc21 (stereo unspecified) + C=CC(=O)N1CCN(c2nc(OCC3CCCN3C)nc3c2CCN(c2cccc4cccc(C)c24)C3)CC1CC#N"
  Target Under Test: "253994-281-T-J1-PDC KRAS-mutant spheroids with HUVEC/MSC, viability"
  Unit Spec: "%"
  viability, T/C: 98.4
- Compound: "COC(=O)c1ccc2c(C(=Nc3ccc(N(C)C(=O)CN4CCN(C)CC4)cc3)c3ccccc3)c(O)[nH]c2c1 + CC1OCC2(CCN(c3cnc(Sc4ccnc(N)c4Cl)c(N)n3)CC2)C1N"
  Target Under Test: "253994-281-T-J1-PDC KRAS-mutant spheroids with HUVEC/MSC, viability"
  Unit Spec: "%"
  viability, T/C: 53.8
